Test system: Acinetobacter baumannii
Format: cell-based
Numbered stars: 1 amine (or outer) side, 2 acyl side, 3 side chain; on linkers, the order of the positions; unused ones are H or OH. Bridge positions count the residues as written; N and C are the ends. Square brackets hold non-standard residues; d marks the D form. Peptide text beside a SMILES is read from it. * marks the point of attachment. ξ: configuration not given here. X5 = CCCCCCCCc1ccc(C[C@@H](N[*:1])C(=O)[*:2])cc1; X16 = Cc1cc(C)cc(CO[C@@H](CCN)C(=O)*)c1; Octanoyl(6-Me) = CCC(C)CCCCC(=O)*; dCha = N[C@H](CC1CCCCC1)C(=O)O; Thr(3ξ) = CC(O)[C@H](N)C(=O)O; X28 = NCCC(C(=O)*)c1ccccc1Cl; Dab = NCC[C@H](N)C(=O)O; Dap = NC[C@H](N)C(=O)O; X18 = CCCCC(CCN)C(=O)*; X2 = CC(C)CC(CN)C(=O)*
A collection of molecules and their measured MIC A. baumanii ATCC BAA-747

The following molecules have reported results that may help.
CC(C)C[C@@H]1NC(=O)[C@@H](CC2CCCCC2)NC(=O)[C@H](CCN)NC(=O)[C@@H](NC(=O)[C@H](CCN)NC(=O)[C@@H](NC(=O)C(CCN)c2ccccc2Cl)[C@@H](C)O)CCNC(=O)[C@H]([C@@H](C)O)NC(=O)[C@H](CCN)NC(=O)[C@H](CCN)NC1=O (stereo partly drawn) [Example 77] (X28-T[Dab][Dab][Dab][dCha]L[Dab][Dab]T; lactam 3-C) :: 1 µg/mL
CC(C)Cc1ccc(C[C@H]2NC(=O)[C@H](CCN)NC(=O)[C@@H](NC(=O)[C@H](CN)NC(=O)[C@@H](NC(=O)C3CNCC(CC(C)C)C3)C(C)O)CCNC(=O)[C@H]([C@@H](C)O)NC(=O)[C@H](CCN)NC(=O)[C@H](CCN)NC(=O)[C@H](CC(C)C)NC2=O)cc1 (single isomer, unassigned; isomer 2) [Example 25] :: 0.5 µg/mL
CCCCCCCCC1CNCC1C(=O)N[C@H](C(=O)N[C@@H](CCN)C(=O)N[C@H]1CCNC(=O)[C@H]([C@@H](C)O)NC(=O)[C@H](CCN)NC(=O)[C@H](CCN)NC(=O)[C@H](CC(C)C)NC(=O)[C@@H](Cc2ccccc2-c2ccccc2)NC(=O)[C@H](CCN)NC1=O)C(C)O (single isomer, unassigned; isomer 1) [Example 9] :: 1 µg/mL
CCCCC(CCN)C(=O)N[C@H](C(=O)N[C@@H](CCN)C(=O)N[C@H]1CCNC(=O)[C@H]([C@@H](C)O)NC(=O)[C@H](CCN)NC(=O)[C@H](CCN)NC(=O)[C@H](CC(C)C)NC(=O)[C@@H](CC2CCCCC2)NC(=O)[C@H](CCN)NC1=O)C(C)O (stereo partly drawn) [Example 40] (X18-[Thr(3ξ)][Dab][Dab][Dab][dCha]L[Dab][Dab]T; lactam 3-C) :: 0.06 µg/mL
Cc1cc(C)cc(CO[C@@H](CCN)C(=O)N[C@H](C(=O)N[C@@H](CN)C(=O)N[C@H]2CCNC(=O)[C@H]([C@@H](C)O)NC(=O)[C@H](CCN)NC(=O)[C@H](CCN)NC(=O)[C@H](CC(C)C)NC(=O)[C@@H](CC3CCCCC3)NC(=O)[C@H](CCN)NC2=O)[C@@H](C)O)c1 [Example 90] (X16-T[Dap][Dab][Dab][dCha]L[Dab][Dab]T; lactam 3-C) :: 0.125 µg/mL

Look at this molecule and give its reported MIC A. baumanii ATCC BAA-747. CCC(C)CCCCC(=O)N[C@@H](CCN)C(=O)N[C@H](C(=O)N[C@@H](CCN)C(=O)N[C@H]1CCNC(=O)[C@H](C(C)O)NC(=O)[C@H](CCN)NC(=O)[C@H](CCN)NC(=O)[C@H](CC(C)C)NC(=O)[C@@H](CC2CCCCC2)NC(=O)[C@H](CCN)NC1=O)C(C)O (stereo partly drawn) [Example 22] ({Octanoyl(6-Me)}-[Dab][Thr(3ξ)][Dab][Dab][Dab][dCha]L[Dab][Dab][Thr(3ξ)]; lactam 4-C) 0.5 µg/mL

Look at this molecule and give its reported MIC A. baumanii ATCC BAA-747. CC(C)CC1CNCC(C(=O)N[C@H](C(=O)N[C@@H](CN)C(=O)N[C@H]2CCNC(=O)[C@H]([C@@H](C)O)NC(=O)[C@H](CCN)NC(=O)[C@H](CCN)NC(=O)[C@H](CC(C)C)NC(=O)[C@@H](Cc3ccc(Br)cc3)NC(=O)[C@H](CCN)NC2=O)C(C)O)C1 (single isomer, unassigned; isomer 1) [Example 11] 2 µg/mL

Look at this molecule and give its reported MIC A. baumanii ATCC BAA-747. CCCCCCCCc1ccc(C[C@H]2NC(=O)[C@H](CCN)NC(=O)[C@@H](NC(=O)[C@H](CN)NC(=O)[C@@H](NC(=O)[C@@H](N)CCN)C(C)O)CCNC(=O)[C@H]([C@@H](C)O)NC(=O)[C@H](CCN)NC(=O)[C@H](CCN)NC(=O)[C@H](CC(C)C)NC2=O)cc1 (stereo partly drawn) [Example 29] (H-[Dab][Thr(3ξ)][Dap][Dab][Dab][X5]L[Dab][Dab]T; lactam 4-C) 4 µg/mL

Look at this molecule and give its reported MIC A. baumanii ATCC BAA-747. CC(C)CC(CN)C(=O)N[C@H](C(=O)N[C@@H](CCN)C(=O)N[C@H]1CCNC(=O)[C@H]([C@@H](C)O)NC(=O)[C@H](CCN)NC(=O)[C@H](CCN)NC(=O)[C@H](CC(C)C)NC(=O)[C@@H](CC2CCCCC2)NC(=O)[C@H](CCN)NC1=O)C(C)O (stereo partly drawn) [Example 21] (X2-[Thr(3ξ)][Dab][Dab][Dab][dCha]L[Dab][Dab]T; lactam 3-C) 0.5 µg/mL

----------
Tested on: Klebsiella pneumoniae
Format: cell-based
Method: To evaluate the potency and spectrum of the compounds, susceptibility testing was performed against up to nine strains of each of the Gram negative pathogens, Escherichia coli, Pseudomonas aeruginosa, Klebsiella pneumoniae and Acinetobacter baumannii. The values in Table 2 are MIC (μg/mL) against strains of E. coli, K. pneumoniae, P. aeruginosa and A. baumanii, including strains which show elevated MICs to Polymyxin. The values in Table 2A are MIC (μg/mL). […]
Numbered stars: 1 amine (or outer) side, 2 acyl side, 3 side chain; on linkers, the order of the positions; unused ones are H or OH. Bridge positions count the residues as written; N and C are the ends. Square brackets hold non-standard residues; d marks the D form. Peptide text beside a SMILES is read from it. * marks the point of attachment. ξ: configuration not given here. X11 = O=C([C@@H](Cc1ccc(-c2ccncc2)cc1)N[*:1])[*:2]; dPhe(4-Br) = N[C@H](Cc1ccc(Br)cc1)C(=O)O; Octanoyl(6-Me) = CCC(C)CCCCC(=O)*; dCha = N[C@H](CC1CCCCC1)C(=O)O; Thr(3ξ) = CC(O)[C@H](N)C(=O)O; X1 = CC(C)CN1CCNC[C@H]1C(=O)*; X4 = CC(C)CC1CNCC(C(=O)*)C1; X8 = NCC(C(=O)*)C1CCCCC1; Dab = NCC[C@H](N)C(=O)O; Dap = NC[C@H](N)C(=O)O
Entries whose MIC K. pneumoniae 063 is below 20 µg/mL take class 1; entries at or above 20 µg/mL take class 0.

# example entries with known answers
CC(C)C[C@@H]1NC(=O)[C@@H](CC2CCCCC2)NC(=O)[C@H](CCN)NC(=O)[C@@H](NC(=O)[C@H](CN)NC(=O)[C@@H](NC(=O)C(CCN)Cc2ccccc2F)[C@@H](C)O)CCNC(=O)[C@H]([C@@H](C)O)NC(=O)[C@H](CCN)NC(=O)[C@H](CCN)NC1=O (single isomer, unassigned; isomer 2) :: class 1
CC(C)CC1CNCC(C(=O)N[C@H](C(=O)N[C@@H](CN)C(=O)N[C@H]2CCNC(=O)[C@H]([C@@H](C)O)NC(=O)[C@H](CCN)NC(=O)[C@H](CCN)NC(=O)[C@H](CC(C)C)NC(=O)[C@@H](Cc3ccc(Br)cc3)NC(=O)[C@H](CCN)NC2=O)C(C)O)C1 (single isomer, unassigned; isomer 2) [Example 12] :: class 1
CCC(C)CCCCC(=O)N[C@@H](CCN)C(=O)N[C@H](C(=O)N[C@@H](CCN)C(=O)N[C@H]1CCNC(=O)[C@H]([C@@H](C)O)NC(=O)[C@H](CCN)NC(=O)[C@H](CCN)NC(=O)[C@H](CC(C)C)NC(=O)[C@@H](Cc2ccc(-c3ccncc3)cc2)NC(=O)[C@H](CCN)NC1=O)C(C)O (some centres unmarked) [Example 1] ({Octanoyl(6-Me)}-[Dab][Thr(3ξ)][Dab][Dab][Dab][X11]L[Dab][Dab]T; lactam 4-C) :: class 0
CC(C)CC1CNCC(C(=O)N[C@H](C(=O)N[C@@H](CCN)C(=O)N[C@H]2CCNC(=O)[C@H]([C@@H](C)O)NC(=O)[C@H](CCN)NC(=O)[C@H](CCN)NC(=O)[C@H](CC(C)C)NC(=O)[C@@H](CC3CCCCC3)NC(=O)[C@H](CCN)NC2=O)[C@@H](C)O)C1 (some centres unmarked) [Example 73] (X4-T[Dab][Dab][Dab][dCha]L[Dab][Dab]T; lactam 3-C) :: class 1
CC(C)C[C@@H]1NC(=O)[C@@H](CC2CCCCC2)NC(=O)[C@H](CCN)NC(=O)[C@@H](NC(=O)[C@H](CN)NC(=O)[C@@H](NC(=O)C(CN)C2CCCCC2)C(C)O)CCNC(=O)[C@H]([C@@H](C)O)NC(=O)[C@H](CCN)NC(=O)[C@H](CCN)NC1=O (some centres unmarked) [Example 28] (X8-[Thr(3ξ)][Dap][Dab][Dab][dCha]L[Dab][Dab]T; lactam 3-C) :: class 1
CC(C)C[C@@H]1NC(=O)[C@@H](CC2CCCCC2)NC(=O)[C@H](CCN)NC(=O)[C@@H](NC(=O)[C@H](CN)NC(=O)[C@@H](NC(=O)C(CCN)c2ccccc2)C(C)O)CCNC(=O)[C@H]([C@@H](C)O)NC(=O)[C@H](CCN)NC(=O)[C@H](CCN)NC1=O (single isomer, unassigned; isomer 2) :: class 0

Bench note: check whether CCCCCCCCC1CNCC1C(=O)N[C@H](C(=O)N[C@@H](CCN)C(=O)N[C@H]1CCNC(=O)[C@H]([C@@H](C)O)NC(=O)[C@H](CCN)NC(=O)[C@H](CCN)NC(=O)[C@H](CC(C)C)NC(=O)[C@@H](Cc2ccccc2-c2ccccc2)NC(=O)[C@H](CCN)NC1=O)C(C)O (single isomer, unassigned; isomer 2) [Example 10] shows MIC K. pneumoniae 063 below 20 µg/mL class 1

Bench note: check whether CC(C)C[C@@H]1NC(=O)[C@@H](CC2CCCCC2)NC(=O)[C@H](CCN)NC(=O)[C@@H](NC(=O)[C@H](CN)NC(=O)[C@@H](NC(=O)CC(N)C2CCCCC2)C(C)O)CCNC(=O)[C@H]([C@@H](C)O)NC(=O)[C@H](CCN)NC(=O)[C@H](CCN)NC1=O (single isomer, unassigned; isomer 1) [Example 32] shows MIC K. pneumoniae 063 below 20 µg/mL class 1

Bench note: check whether CC(C)C[C@@H]1NC(=O)[C@@H](Cc2ccccc2)NC(=O)[C@H](CCN)NC(=O)[C@@H](NC(=O)[C@H](CN)NC(=O)[C@@H](NC(=O)[C@@H]2CNCCN2CC(C)C)C(C)O)CCNC(=O)[C@H]([C@@H](C)O)NC(=O)[C@H](CCN)NC(=O)[C@H](CCN)NC1=O (some centres unmarked) [Example C2, reference compound] (X1-[Thr(3ξ)][Dap][Dab][Dab][dF]L[Dab][Dab]T; lactam 3-C) shows MIC K. pneumoniae 063 below 20 µg/mL class 0

Bench note: check whether CC(C)CC(CN)C(=O)N[C@H](C(=O)N[C@@H](CN)C(=O)N[C@H]1CCNC(=O)[C@H]([C@@H](C)O)NC(=O)[C@H](CCN)NC(=O)[C@H](CCN)NC(=O)[C@H](CC(C)C)NC(=O)[C@@H](Cc2ccc(-c3ccccc3)cc2)NC(=O)[C@H](CCN)NC1=O)C(C)O (single isomer, unassigned; isomer 2) [Example 16] shows MIC K. pneumoniae 063 below 20 µg/mL class 1

Bench note: check whether CCC(C)CCCCC(=O)N[C@@H](CCN)C(=O)N[C@H](C(=O)N[C@@H](CCN)C(=O)N[C@H]1CCNC(=O)[C@H]([C@@H](C)O)NC(=O)[C@H](CCN)NC(=O)[C@H](CCN)NC(=O)[C@H](CC(C)C)NC(=O)[C@@H](Cc2ccc(Br)cc2)NC(=O)[C@H](CCN)NC1=O)C(C)O (stereo partly drawn) [Example 2, Polymyxin B[D-(4-bromoPhe)]-6]] ({Octanoyl(6-Me)}-[Dab][Thr(3ξ)][Dab][Dab][Dab][dPhe(4-Br)]L[Dab][Dab]T; lactam 4-C) shows MIC K. pneumoniae 063 below 20 µg/mL class 1
